Where do these numbers come from? They come from ChEMBL document CHEMBL1136459.

TEST_DESCRIPTION: In vivo Oral bioavailability (F)was determined after peroral administration of compound (19.01+/-0.31 mg/kg) in male Sprague-Dawley rat
Type: ADME, organism-based
RECORDED_METRIC: bioavailability (%)
Give a bare numeral; the unit % is implied.

**Query** // query bioavailability value for entry O=C(NC[C@H]1CN(c2ccc(C3CC[S+]([O-])CC3)c(F)c2)C(=O)O1)C(F)F (stereo partly specified)
**Result** 77.1

###

TEST_DESCRIPTION: In vivo t1/2 was determined after peroral administration of compound (158.5+/-2 mg/kg) in male Sprague-Dawley rat
Type: ADME, organism-based
EXPERIMENTAL_CONDITIONS: po
RECORDED_METRIC: half-life (min)
Numeric only. Scale: min

**Query** Data request, read-out half-life, for O=C(NC[C@H]1CN(c2ccc(C3CC[S+]([O-])CC3)c(F)c2)C(=O)O1)C(F)F (stereo partly specified)
**Result** 476
